- Tested on: MS2 coat protein
- protocol.notes: apparent KD of MS2 coat protein; designed switch direction (-1 OFF switch, 1 ON switch): -1; higher = weaker reporter binding
- condition.info: Eterna round: R95; input ligand: none
Would you kindly list apparent KD of MS2 coat protein for each of these sequences?
One number for each entry, in nM.

Solved cases below.
query_sequence="GAUAGAGAGCAGGAUAUCUUGGGUAAGUGUUGUAGAGAAGGGCUCACAUGAGGAUCACCCAUGUGGUCCAAGAU [JL Dibiri mod 07] (puzzle: Exclusion 6)" value_observed=17.2
query_sequence="GGUUGGCGAGGAUAUACAUGAGGAUCACCCAUGUGAAAGAAAAAAGUGAGGAAGAAAAGUAGAAGGCGCUGACG [salish99_ex3_r3_016] (puzzle: Exclusion 3)" value_observed=14.4
query_sequence="AGUACUAACACGUAAGUGUUAGUACAAUAAGCUUGUGUUACAUGAGGAUCACCCAUGUCCUCAUAAGCUCGUCUUAU [Mat - Sensor v3 - Turn-off var 2 - D60] (puzzle: Sensor v3, turn-off variant 2)" value_observed=150
query_sequence="CAUUAAACGGAGGAUAUCCUAUAUAUAAUAAUAGGAGAAGGUCGUACAUGAGGAUCACCCAUGUGUGGACAUGG [something] (puzzle: Exclusion 6)" value_observed=249
query_sequence="CAUGAUCUUCGGAUCAUGUACAUGAGGAUCACCCAUGUUACGAGCUGAUUUUCAUACAAGCUUUUUGCUCGUCUUAU [Sensor v3 - Turn-off variant 1 - 30] (puzzle: Sensor v3, turn-off variant 1)" value_observed=43

I have 5 sequences here; please give me apparent KD of MS2 coat protein for each one.
1. GGUGCUGGCGCGUCGGUGUUGGUGCAAUAAGCUUGUGAAACAUGAGGAUCACCCAUGUCCUCAUGGGCUCGUCUUGU [salish99_TOv2_r2_089] (puzzle: Sensor v3, turn-off variant 2)
2. CUAGUCCGAGGAUAUAUUAUGUGAUACAUGAGGAUCACCCAUGUUAUAUGAUGGAUAUUAAUAGAAGGCGGACUAG [Mat - Exclusion 5 - JL mod - D74] (puzzle: Exclusion 5)
3. CUCCUCGUGGCGCCUAAACACAUGAGGAUCACCCAUGUACAGGCUUUUUGCCGUCUUAUAAUAAAACCGAGGAGACG [Ataesarxe] (puzzle: Sensor v3, turn-off variant 1)
4. AAAGAAGAGAGAAAAUAACACAUGAGGAUCACCCAUGUGCGAUGUUGAGGGUGAUACAGGCUUUUUGCUCGUCUUAU (puzzle: Sensor v3, turn-off variant 1)
5. AGUACUAACACGAAAGUGUUAGUACAAUAAGCUUGUGCAACAUGAGGAUCACCCAUGUCCUCAUAAGCUCGUCUUAU [salish99_TOv2_r3_044] (puzzle: Sensor v3, turn-off variant 2)

Reply:
1: 138; 2: 88; 3: 16.6; 4: 199; 5: 574

* * *

- System: MS2 coat protein
- protocol.notes: apparent KD of MS2 coat protein; higher = weaker reporter binding
- condition.info: Eterna round: R107; input ligand: none
property: apparent KD of MS2 coat protein (µM)
Answers are plain numbers, in µM.

Answered examples (5):
query_sequence="CCUAUAUAGUCGGCCGCCACUGACUACAUGAGGAUCACCCAUGUAACACGAACAUGGUCCUGGAUCAGGACCGGGACUAUAUAGG [Tryp B Ex t5]" property="apparent KD of MS2 coat protein" value_observed=0.0207
query_sequence="UACAUAUGCCGAAGGAGCGCGAGAAGCAAAGCUUCAUUCCUCACAUGAGGAUCACCCAUGUCGCAGGUAGGUCGCGGCAUAUGUU [#15 Exclusion - Arginine B]" property="apparent KD of MS2 coat protein" value_observed=0.0218
query_sequence="AUACAUGAGGAUCACCCAUGUCAUACAGAAGGAGCGUCACAUAAGACAGGUAGGUCGCUGAUAAAUGGAUUAUAGUUUAUGAUUA [JR_SSArginiA_Sub016]" property="apparent KD of MS2 coat protein" value_observed=0.0186
query_sequence="AAUCGGAGAUGAAGGAGCGCGUACAUGAGGAUCACCCAUGUAUCAAAGCUUCUCCCGUGUAUGCAGGUAGGUCGCAUUUCCACGU [Ceriedan]" property="apparent KD of MS2 coat protein" value_observed=0.00912
query_sequence="UCGGGCAGAGCGGCCGCCACUGUAAGGCGUGCGGAUGACGGAACAUGAGGAUCACCCAUGUUGUUUAGGACCGGGCUUGCGGCGA [nynullin]" property="apparent KD of MS2 coat protein" value_observed=0.0158

Now look at this entry.
Query: Given the entry CCCAAAUAGAUAUUUGGGAUUUUACUCGAAGGAGCGUCAUAGUAGGCAGGUAGGUCGCGAGACAUGAGGAUCACCCAUGUAGAGA [ss-argA-N] , what apparent KD of MS2 coat protein was observed with MS2 coat protein?
Reply: 0.0411

* * *

- System: MS2 coat protein
- protocol.notes: apparent KD of MS2 coat protein; designed switch direction (-1 OFF switch, 1 ON switch): -1; higher = weaker reporter binding
- condition.info: input ligand: none
Provide the reported apparent KD of MS2 coat protein of each item.
Give bare numbers, in µM.

Use these answered entries as a reference point.
query_sequence="UGAAAGUGAGGAUAUCCAAUAUAUGACAUGAGGAUCACCCAUGUUUCCACUCGUACCUCCGGAGAAGGCACAAAGU [Ex5 #58] (Eterna round: R97, puzzle: Exclusion 5)" measurement_target="MS2 coat protein" quantity_unit=µM value_observed=0.0288
query_sequence="ACAAUGUUAGGAUAUCUGACAAUUAGUCUCGACUAGUCGAAAGAGAAGGAACAUGAGGAUCACCCAUGUAGAUC [EX4 #73] (Eterna round: R97, puzzle: Exclusion 4)" measurement_target="MS2 coat protein" quantity_unit=µM value_observed=0.0374

Let's switch to this sequence now.
Query: Quick check: apparent KD of MS2 coat protein of AAAAUACGCACAGGAUAUCGAUACAUGAGGAUCACCCAUGUAACAUGGACUGGUCAGCAGAAAAGCGAGAAGGGUGCUGACGAC [Lediaroren] (Eterna round: R96, puzzle: Exclusion NG 2) ?
Reply: 0.0556

* * *

For each entry below, report its apparent KD of K4 kissing-loop reporter value.
- Test system: K4 kissing-loop RNA reporter;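 further: bound reporter read as fluorescence of individual clusters on recovered sequencing chips by microscopy, with normalized cluster intensities fitted with a binding model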
- protocol.notes: apparent KD of K4 kissing-loop reporter; higher = weaker reporter binding
- condition.info: Eterna round: R107; input ligand: none
Numbers only, in nM.

Give one value of apparent KD of K4 kissing-loop reporter per listed sequence.
1. GUGCGGCUAGUGAUGUUGGUUGUGUGGGAAGGAGCGCAGAUACAUGCAGGUAGGUCGCCCACACCUCUGAAAGGAGGCUAAUUCA [KL-SSArg-A15]
2. UGUCAUUGGUCGGCCGCCACUAGGACCGGGAUUUUUCUAGUGAUGUUAGUUUGGUCGGCCGCCACUAGGACCGGGACCGAUGACU [KL-SSTryp-B13 #DoubleAptamer]
3. UAAGCUCUGACGGCCGCCACUGCACGUGAAUCAGUGGUGGCUAACAUGAGUGAUGUUCAUGUAAGCAGGACCGGGUCAGAGCUAA [KL-XTryp-B14 #analogue]

Reply:
411
644
93.4

* * *

Please provide measured apparent KD of MS2 coat protein for the entries that follow.
- Tested on: MS2 coat protein
- protocol.notes: apparent KD of MS2 coat protein; designed switch direction (-1 OFF switch, 1 ON switch): 1; higher = weaker reporter binding
- condition.info: Eterna round: R95; input ligand: none
Dear colleague, please send the value followed by its unit.

Count: 2. Required value per item: apparent KD of MS2 coat protein.
1. UACAAUCUAUCUGAGGAUAUCAUGAAAAAAACAUGAGGAUCACCCAUGUGCAGGAAAACUGCAUAUGAGAAGGCAGAUAGAUUGC [salish99_SS2_r3_008] (puzzle: Same State 2)
2. AUUUAACAUGAGGAUCACCCAUGUCAACAAAGUCGAGGAUAUGGGCAAAUAAAAUAAGAACCAGAAGGCGAAUAAU [salish99_ss1_r3_070] (puzzle: Same State 1)

Reply:
1320 nM
368 nM

Consider the following items and state reported apparent KD of MS2 coat protein for each.
1. CGUCCGGCCUGUGCUGGCCGGAAGCAUGUACAUGAGGAUCACCCAUGUUCAUGUGCUGGCUUUUUGCUCGUCUUGUG [salish99_mir208a_011] (puzzle: Sensor for hsa-mir-208a)
2. UCUUGGUUUUUGCUCGUUUUUUGUGUUGAACAUGAGGAUCACCCAUGUAUUGUACAAUCCAGUUUGAUAAUGGUCCG [JR_SHM208A_Sub045] (puzzle: Sensor for hsa-mir-208a)
3. CUGCAACAUGAGGAUCACCCAUGUAACCCGGUUACAGGAUAUGUGAUGGUGAUCGACAUGACAGAAGGGUGAUUGG [Indiinbi] (puzzle: Same State 1)

Reply:
1: 14 nM; 2: 167 nM; 3: 29.6 nM

The following sequences each have a reported value; give each one's apparent KD of MS2 coat protein.
1. GAGAGAGGAAGCGAGGAUAUCGUGUUGAGUACAUGAGGAUCACCCAUGUUGUAGGUAGAGGUAGGCGAGAAGGCGCAGGAGAAGA [JR_SS2_Sub0100] (puzzle: Same State 2)
2. CACAAUCUAUCUGAGGAUAUCAUGAAAAAAACAUGAGGAUCACCCAUGUGCAGGAAAACUGCAUAUGAGAAGGCAGAUAGAUUGA [salish99_SS2_r3_016] (puzzle: Same State 2)
3. AAUUAUUAACAUGAGGAUCACCCAUGUAUAAGGGAGAAUAUUAUUAUUAUUAUUAACAAGCUUUUUGCUUGUCUCAU [Ribo-boogie] (puzzle: Sensor for hsa-mir-208a version 2)
4. AAUAAGUUCAGCUCGUCUUGCGCCGACUGACAUGAGGAUCACCCAUGUGGAUUCCAAGGAAUCCAUUGGCGUGUUUC [Ororer] (puzzle: Sensor for hsa-mir-208a)
5. UAUGAACAUGAGGAUCACCCAUGUGGAAAAGACACAGGAUAUCAUCCCGGACGUGCGAGAUGAGAAGGGUGAUGGU [Edrive] (puzzle: Same State 1)
6. CGAGCCGGCACUGAGGAUAUUCAUAUUUAAACAUGAGGAUCACCCAUGUAGGCCAGAAGGCCUUGGGAGAAGGCAGGUCGGCUCC [salish99_ss2_r3_080] (puzzle: Same State 2)

Reply:
1. 41 nM
2. 678 nM
3. 68.4 nM
4. 24.8 nM
5. 367 nM
6. 480 nM
